species: Rattus norvegicus; experiment: Open TG-GATES - Regimen: Daily Repeat; format: toxicity, organism-based, Sprague-Dawley; set-up: regimen Daily Repeat, gender Male, age 6 weeks; details: in vivo, po, 1000 mg/kg, 72 h, tissue Blood, route gavage, dose level High, time 3 day

compound	u	Neu
NC(N)=Nc1nc(CSCCC(N)=NS(N)(=O)=O)cs1	%	14.4
CCOC(=O)CCC(=O)O[C@H]1[C@H](O[C@@H]2[C@@H](C)[C@H](O[C@H]3C[C@@](C)(OC)[C@@H](O)[C@H](C)O3)[C@@H](C)C(=O)O[C@H](CC)[C@@](C)(O)[C@H](O)[C@@H](C)C(=O)[C@H](C)C[C@@]2(C)O)O[C@H](C)C[C@@H]1N(C)C [ERYTHROMYCIN ETHYLSUCCINATE]	%	8.6
CCOc1ccc(NC(=O)CC(C)O)cc1 (stereo not given)	%	22.6
COC1=CC(=O)C[C@@H](C)[C@]12Oc1c(Cl)c(OC)cc(OC)c1C2=O	%	17
COc1ccc2[nH]c([S+]([O-])Cc3ncc(C)c(OC)c3C)nc2c1 (stereo not given)	%	11.8

----------
species on record: Rattus norvegicus; experiment: Open TG-GATES - Regimen: Daily Repeat; format: toxicity, organism-based, Sprague-Dawley; parameters: regimen Daily Repeat, gender Male, age 6 weeks; conditions: in vivo, po, 0 mg/kg, […], tissue Blood, route gavage, dose level Control, time 7 day
observed property: WBC

In [3]: df
Out[3]:
                                   molecule  observed_property  value_measured
0  CC(C)OC(=O)C(C)(C)Oc1ccc(C(=O)c2ccc(Cl)cc2)cc1 [FENOFIBRATE]                WBC   94.9 x10_2/uL
1               NNC(=O)c1ccncc1 [ISONIAZID]                WBC  108.1 x10_2/uL
2  CN1C(=O)CN=C(c2ccccc2)c2cc(Cl)ccc21 [DIAZEPAM]                WBC  120.8 x10_2/uL

----------
species: Rattus norvegicus; test: Open TG-GATES - Regimen: Daily Repeat; format: toxicity, organism-based, Sprague-Dawley; parameters: regimen Daily Repeat, gender Male, age 6 weeks; conditions: in vivo, po, 10 mg/kg, […], tissue Plasma, route gavage, dose level Low, time 7 day
observed property: gamma-GTP

                                   compound  value_measured
0  CC(C)OC(=O)C(C)(C)Oc1ccc(C(=O)c2ccc(Cl)cc2)cc1 [FENOFIBRATE]          1 IU/L
1  CC1=C(/C=C/C(C)=C/C=C/C(C)=C/CO)C(C)(C)CCC1 [RETINOL]        1.4 IU/L
2                CN(C)CCN(Cc1cccs1)c1ccccn1          1 IU/L
3  CN(C)CCCN1c2ccccc2CCc2ccccc21 [IMIPRAMINE]        0.8 IU/L

----------
species: Rattus norvegicus; assay: Open TG-GATES - Regimen: Daily Repeat; format: toxicity, organism-based, Sprague-Dawley; parameters: regimen Daily Repeat, gender Male, age 6 weeks; settings: in vivo, po, 0 mg/kg, […], tissue Plasma, route gavage, dose level Control, time 7 day
The following compounds are shown together with reported gamma-GTP values.
observed property: gamma-GTP (IU/L)

>>> df
                                   compound  observed_property  value_measured
0  CC1=C(/C=C/C(C)=C/C=C/C(C)=C/CO)C(C)(C)CCC1          gamma-GTP             1.2
1  CCCNC(=O)NS(=O)(=O)c1ccc(Cl)cc1 [CHLORPROPAMIDE]          gamma-GTP             1.2
2  COc1ccc2[nH]c([S+]([O-])Cc3ncc(C)c(OC)c3C)nc2c1 (stereo not given)          gamma-GTP             0.8
3                CN(C)CCN(Cc1cccs1)c1ccccn1          gamma-GTP             1.8
4  CC(C)OC(=O)C(C)(C)Oc1ccc(C(=O)c2ccc(Cl)cc2)cc1 [FENOFIBRATE]          gamma-GTP               1

----------
organism: Rattus norvegicus; assay: Open TG-GATES - Regimen: Single; type: toxicity, organism-based, Sprague-Dawley; parameters: regimen Single, gender Male, age 6 weeks; conditions: in vivo, po, 10 mg/kg, 24 h, route gavage, dose level Low
observed property: TERMINAL_BW (g)

                                   compound  observed_property  value_measured
0  CN(C)CCCN1c2ccccc2CCc2ccc(Cl)cc21 [CLOMIPRAMINE]        TERMINAL_BW           228.6
1  CN(C)CCCN1c2ccccc2CCc2ccccc21 [IMIPRAMINE]        TERMINAL_BW           217.3
2  CC1=C(/C=C/C(C)=C/C=C/C(C)=C/CO)C(C)(C)CCC1 [RETINOL]        TERMINAL_BW           208.4
3                CN(C)CCN(Cc1cccs1)c1ccccn1        TERMINAL_BW           197.6

----------
Here, each record is paired with measured K data.
species on record: Rattus norvegicus; test: Open TG-GATES - Regimen: Daily Repeat; format: toxicity, organism-based, Sprague-Dawley; set-up: regimen Daily Repeat, gender Male, age 6 weeks; details: in vivo, po, 100 mg/kg, 72 h, tissue Plasma, route gavage, dose level Low, time 3 day
observed property: K (meq/L)

compound	u	value measured
CCOC(=O)CCC(=O)O[C@H]1[C@H](O[C@@H]2[C@@H](C)[C@H](O[C@H]3C[C@@](C)(OC)[C@@H](O)[C@H](C)O3)[C@@H](C)C(=O)O[C@H](CC)[C@@](C)(O)[C@H](O)[C@@H](C)C(=O)[C@H](C)C[C@@]2(C)O)O[C@H](C)C[C@@H]1N(C)C [ERYTHROMYCIN ETHYLSUCCINATE]	meq/L	4.4
COc1ccc2[nH]c([S+]([O-])Cc3ncc(C)c(OC)c3C)nc2c1 (centres undefined) [OMEPRAZOLE]	meq/L	3.8
COC1=CC(=O)C[C@@H](C)[C@]12Oc1c(Cl)c(OC)cc(OC)c1C2=O [GRISEOFULVIN]	meq/L	3.9
CCOc1ccc(NC(=O)CC(C)O)cc1 (centres undefined) [BUCETIN]	meq/L	4.2

----------
species on record: Rattus norvegicus; experiment: Open TG-GATES - Regimen: Daily Repeat; type: toxicity, organism-based, Sprague-Dawley; parameters: regimen Daily Repeat, gender Male, age 6 weeks; details: in vivo, po, 0 mg/kg, […], tissue Plasma, route gavage, dose level Control, time 7 day
Rule: yes for RALB not less than 3 g/dL, no for anything less.

                                   molecule  assigned_category
0  CN1C(=O)CN=C(c2ccccc2)c2cc(Cl)ccc21 [DIAZEPAM]                yes
1  CCOc1ccc(NC(=O)CC(C)O)cc1 (stereo not given) [BUCETIN]                 no
2  O=C(CCCN1CCC(O)(c2ccc(Cl)cc2)CC1)c1ccc(F)cc1 [HALOPERIDOL]                yes
3  COC1=CC(=O)C[C@@H](C)[C@]12Oc1c(Cl)c(OC)cc(OC)c1C2=O [GRISEOFULVIN]                yes
4  COc1ccc2[nH]c([S+]([O-])Cc3ncc(C)c(OC)c3C)nc2c1 (stereo not given) [OMEPRAZOLE]                yes

----------
species: Rattus norvegicus; test: Open TG-GATES - Regimen: Daily Repeat; format: toxicity, organism-based, Sprague-Dawley; set-up: regimen Daily Repeat, gender Male, age 6 weeks; conditions: in vivo, po, 300 mg/kg, […], tissue Kidney, route gavage, dose level Middle, time 28 day
// KIDNEY_TOTAL lookup, one value per entry
observed property: KIDNEY_TOTAL (g)

molecule	value measured
CCOc1ccc(NC(=O)CC(C)O)cc1 (stereo not given) [BUCETIN]	3.2
COC1=CC(=O)C[C@@H](C)[C@]12Oc1c(Cl)c(OC)cc(OC)c1C2=O [GRISEOFULVIN]	2.7
CCOC(=O)CCC(=O)O[C@H]1[C@H](O[C@@H]2[C@@H](C)[C@H](O[C@H]3C[C@@](C)(OC)[C@@H](O)[C@H](C)O3)[C@@H](C)C(=O)O[C@H](CC)[C@@](C)(O)[C@H](O)[C@@H](C)C(=O)[C@H](C)C[C@@]2(C)O)O[C@H](C)C[C@@H]1N(C)C [ERYTHROMYCIN ETHYLSUCCINATE]	2.9
COc1ccc2[nH]c([S+]([O-])Cc3ncc(C)c(OC)c3C)nc2c1 (stereo not given) [OMEPRAZOLE]	2.9
NC(N)=Nc1nc(CSCCC(N)=NS(N)(=O)=O)cs1 [FAMOTIDINE]	2.8
